# protocol-details: HCT116 colon cancer cell growth inhibition, primary screen, CellTiter-Glo luminescence, NPC library (AID 1117342)
# stated-conditions: at 20 µM (top of the series)
metric: inhibition of viability (%)

>>> experimental_value("O=C(/C=C/c1ccccc1)NCCO")
12.9
>>> experimental_value("CN(C)CC/C=C1\\c2ccccc2COc2ccccc21")
12
>>> experimental_value("NC(=O)NNc1ccccc1")
-3
>>> experimental_value("CC(=O)O[C@@H]1CC2C3CCc4cc(OC(=O)c5ccccc5)ccc4C3CCC2(C)[C@H]1OC(C)=O (stereo partly specified)")
0.9
>>> experimental_value("CN1CCN(N)CC1")
0.1
>>> experimental_value("OC[C@]1(O)OC[C@@H](O)[C@H](O)[C@@H]1O")
-4.9
>>> experimental_value("CC1COc2c(N3CCN(C)CC3)c(F)cc3c(=O)c(C(=O)O)cn1c23 (stereo unspecified)")
0.4
>>> experimental_value("CCCCCOc1ccc(C2SC(=O)NC2=O)cc1OCC (stereo unspecified)")
32.6
>>> experimental_value("CC(C)=CCNc1ncnc2c1ncn2[C@@H]1O[C@H](CO)[C@@H](O)[C@H]1O")
111
>>> experimental_value("CC1(C)CO[C@@H](CC(=O)O)CN1")
7.17
>>> experimental_value("CN(C)c1cc(NC(=O)CNC(C)(C)C)c(O)c2c1C[C@@H]1C[C@H]3[C@H](N(C)C)C(=O)C(C(N)=O)=C(O)[C@@]3(O)C(=O)C1=C2O")
59.6

====

# protocol-details: HCT116 colon cancer cell growth inhibition, primary screen, CellTiter-Glo luminescence, NPC library (AID 1117342)
# stated-conditions: at 20 µM (top of the series)
A collection of compounds and their measured inhibition of viability
metric: inhibition of viability (%)

>>> experimental_value("CC(=O)Nc1ccc(OC(=O)c2ccccc2OC(C)=O)cc1")
-5.8
>>> experimental_value("COC(=O)c1cc(Cl)ccc1NS(=O)(=O)C(F)(F)F")
8.93
>>> experimental_value("C=Cc1ccccc1")
6.9
>>> experimental_value("CCCCNc1cc(C(=O)O)cc(S(N)(=O)=O)c1Oc1ccccc1")
2.63
>>> experimental_value("C=CCNCCCCCC[N+](C)(C)C")
-3.1
>>> experimental_value("Cc1cccc(C)c1OCC(=O)N[C@@H](Cc1ccccc1)[C@@H](O)C[C@H](Cc1ccccc1)NC(=O)[C@H](C(C)C)N1CCCNC1=O")
43.5
>>> experimental_value("Cc1ccc(S(=O)(=O)NC(=O)NN2CCCCCC2)cc1")
-14.9
>>> experimental_value("NC(N)=NC(=O)c1nc(Cl)c(N)nc1N")
3
>>> experimental_value("O=C(c1ccco1)N1CCNCC1")
-8.9
>>> experimental_value("Nc1nc(=O)n([C@@H]2O[C@H](CO)[C@@H](O)[C@@H]2F)cc1I")
23.7
>>> experimental_value("COc1ccc2c(c1)c(CC(=O)O)c(C)n2C(=O)c1ccc(Cl)cc1")
0.43
>>> experimental_value("C[C@@H](O)[C@H](N)C(=O)O")
-31.1

====

# system-tested: Cellular tumor antigen p53 (Homo sapiens) (UniProt P04637)
# Sequence (P04637 whole entry, looked up): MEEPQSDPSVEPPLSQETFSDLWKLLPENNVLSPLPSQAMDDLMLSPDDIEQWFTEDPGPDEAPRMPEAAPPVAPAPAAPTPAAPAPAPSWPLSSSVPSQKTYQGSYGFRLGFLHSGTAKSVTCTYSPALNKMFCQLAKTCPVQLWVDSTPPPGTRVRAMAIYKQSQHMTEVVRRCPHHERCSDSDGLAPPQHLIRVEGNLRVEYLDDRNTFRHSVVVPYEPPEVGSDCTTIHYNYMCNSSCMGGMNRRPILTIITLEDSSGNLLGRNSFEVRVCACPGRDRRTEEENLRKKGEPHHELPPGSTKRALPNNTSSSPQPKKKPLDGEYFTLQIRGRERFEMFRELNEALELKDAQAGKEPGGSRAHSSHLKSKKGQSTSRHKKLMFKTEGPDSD
# protocol-details: kinase inhibitors altering GFP-p53 stability in HPV16-positive cells, imaging, known kinase inhibitor set, EGFP/DsRed ratio (AID 1053116);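 note: cells exposed to compounds for 24 h at 37 °C before reading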
# stated-conditions: stronger effect = higher value; measured here: GFP-p53 positive objects count
metric: EGFP object count

>>> experimental_value("Cc1nc(-c2ccccc2)n2nc(NCCCN3CCOCC3)ncc12")
4.5
>>> experimental_value("CCn1c(-c2nonc2N)nc2c(C#CC(C)(C)O)ncc(OC3CCNCC3)c21")
10.5
>>> experimental_value("CCn1c(-c2nonc2N)nc2c(C#CC(C)(C)O)nc(CN3CCCC3)cc21")
4
>>> experimental_value("NS(=O)(=O)c1ccc(N=Nc2c(O)[nH]c3ccc(C(=O)NCCc4cnc[nH]4)cc23)cc1")
7.5
>>> experimental_value("Cn1cc(C2=C(n3ccc4ccccc43)C(=O)NC2=O)c2ccccc21")
4
